Every entry's value here was drawn from paper PMC6749236.

pIC50 for assorted molecules
System: M-Hela
methodSummary: Cytotoxicity assay (Cytell Cell Imaging, DAPI/propidium iodide), cancer cell line
Format: cell-based
runParameters: Homo sapiens; M-Hela; tested at 1–100 µM; three independent experiments; read-out: IC50 Cancer Cell Line M-Hela
pIC50: −log10 of the molar value.

| molecule | pIC50 |
| --- | --- |
| COc1ccc(NC(=O)N2CCCC2c2ccc(Nc3c([N+](=O)[O-])c(Cl)cc4c3no[n+]4[O-])cc2O)cc1 (stereo not shown) [6c] | 4.59 |
| O=C(Nc1ccccc1)N1CCCC1c1ccc(Nc2c([N+](=O)[O-])c(Cl)cc3c2no[n+]3[O-])cc1O (stereo not shown) [6b] | 4.25 |
| O=C(Nc1ccc(F)cc1)N1CCCC1c1ccc(Nc2c([N+](=O)[O-])c(Cl)cc3c2no[n+]3[O-])cc1O (stereo not shown) [6e] | 4.59 |
| O=C(Nc1ccc(Br)cc1)N1CCCC1c1ccc(Nc2c([N+](=O)[O-])c(Cl)cc3c2no[n+]3[O-])cc1O (stereo not shown) [6d] | 4.59 |
